System: B cells in human blood
Assay: Inhibition of B cell activation in whole blood measured by CD69 expression
Type: cell-based
Conditions: CD69-positive, CD20-positive cells after anti-IgM stimulation, human whole blood, 20 hours, read-out: Human Whole Blood
We'd kindly ask you to apply these IC50 classes: range 1 = under 0.04 µM, range 2 = from 0.04 µM up to 0.07 µM, range 3 = 0.07 µM and over

{"molecule": "Cn1nc(-c2cccc(-n3ncc4cc(C(C)(C)C)cc(F)c4c3=O)c2CO)cc(Nc2ccc(OCC(C)(C)O)cn2)c1=O [I-14]", "answer label": "range 2"}
{"molecule": "CN1CCN(c2ccc(Nc3cc(-c4cccc(-n5ncc6cc(C(C)(C)C)cc(F)c6c5=O)c4CO)nn(C)c3=O)nn2)CC1 [I-45]", "answer label": "range 1"}
{"molecule": "CN1CCn2nc(Nc3cc(-c4cccc(-n5ncc6cc(C(C)(C)C)cc(F)c6c5=O)c4CO)nn(C)c3=O)cc2C1 [I-59]", "answer label": "range 1"}
{"molecule": "Cn1nc(-c2cccc(-n3ncc4cc(C(C)(C)C)cc(F)c4c3=O)c2CO)cc(Nc2ccc(C(=O)N3CCC3)cn2)c1=O [I-47]", "answer label": "range 3"}
{"molecule": "COCCNCc1ccc(Nc2cc(-c3cccc(-n4ncc5cc(C(C)(C)C)cc(F)c5c4=O)c3CO)nn(C)c2=O)nc1 [I-42]", "answer label": "range 2"}
{"molecule": "Cn1nc(-c2cccc(-n3ncc4cc(C(C)(C)C)cc(F)c4c3=O)c2CO)cc(Nc2ccc(N3CCC(O)CC3)cn2)c1=O [I-65]", "answer label": "range 2"}
{"molecule": "CCS(=O)(=O)c1ccc(Nc2cc(-c3cccc(-n4ncc5cc(C(C)(C)C)cc(F)c5c4=O)c3CO)nn(C)c2=O)nc1 [I-23]", "answer label": "range 2"}
{"molecule": "CN(C)C(=O)c1ccc(Nc2cc(-c3cccc(-n4ccc5cc(C(C)(C)C#N)cc(F)c5c4=O)c3CO)nn(C)c2=O)nc1 [I-75]", "answer label": "range 3"}
{"molecule": "Cn1nc(-c2cccc(-n3ncc4cc(C(C)(C)C)cc(F)c4c3=O)c2CO)cc(Nc2ccc(CN3C[C@@H]4C[C@H]3CN4)cn2)c1=O [I-84]", "answer label": "range 3"}
{"molecule": "CCN1CCC(c2ccc(Nc3cc(-c4cccc(-n5ncc6cc(C(C)(C)C)cc(F)c6c5=O)c4CO)nn(C)c3=O)nc2)CC1 [I-30]", "answer label": "range 1"}
{"molecule": "Cn1nc(-c2cccc(-n3ncc4cc(C(C)(C)C)cc(F)c4c3=O)c2CO)cc(Nc2ccn(CC(C)(C)O)n2)c1=O [I-70]", "answer label": "range 3"}
{"molecule": "Cn1nc(-c2cccc(-n3ccc4cc(C(C)(C)C#N)cc(F)c4c3=O)c2CO)cc(Nc2cc3n(n2)CCN(C2COC2)C3)c1=O [I-79]", "answer label": "range 2"}
{"molecule": "CCN1CCn2nc(Nc3cc(-c4cccc(-n5ncc6cc(C(C)(C)C)cc(F)c6c5=O)c4CO)nn(C)c3=O)cc2C1 [I-82]", "answer label": "range 1"}

###

Documented IC50 across a set of molecules
Test system: B cells in human blood
Assay: Inhibition of B cell activation in whole blood measured by CD69 expression
Format: cell-based
Conditions: CD69-positive, CD20-positive cells after anti-IgM stimulation, human whole blood, 20 hours, read-out: Human Whole Blood
Counter-ions that a name gives are not always drawn.

{"molecule": "CN1C[C@H]2CC[C@@H](C1)N2c1ccc(Nc2cc(-c3cccc(-n4ncc5cc(C(C)(C)C)cc(F)c5c4=O)c3CO)nn(C)c2=O)nc1", "IC50": "23 nM"}
{"molecule": "COCCN(C)Cc1ccc(Nc2cc(-c3cccc(-n4ncc5cc(C(C)(C)C)cc(F)c5c4=O)c3CO)nn(C)c2=O)nc1", "IC50": "14 nM"}
{"molecule": "Cc1cc(Nc2cc(-c3cccc(-n4ncc5cc(C(C)(C)C)cc(F)c5c4=O)c3CO)nn(C)c2=O)nn1C", "IC50": "32 nM"}
{"molecule": "Cn1nc(-c2cccc(-n3ncc4cc(C(C)(C)C)cc(F)c4c3=O)c2CO)cc(Nc2ccc(C(=O)N3CC(C#N)C3)cn2)c1=O", "IC50": "39 nM"}
{"molecule": "CN(C)CC(C)(C)Oc1cnc(Nc2cc(-c3cccc(-n4ncc5cc(C(C)(C)C)cc(F)c5c4=O)c3CO)nn(C)c2=O)cn1", "IC50": "12 nM"}
{"molecule": "CN1CC[C@@H](c2ccc(Nc3cc(-c4cccc(-n5ccc6cc(C(C)(C)C#N)cc(F)c6c5=O)c4CO)nn(C)c3=O)nc2)C1", "IC50": "123 nM"}
{"molecule": "Cn1nc(-c2cccc(-n3ncc4cc(C(C)(C)C)cc(F)c4c3=O)c2CO)cc(Nc2ccc(OC(C)(C)CO)cn2)c1=O", "IC50": "52 nM"}
{"molecule": "Cn1nc(-c2cccc(-n3ccc4cc(C(C)(C)C#N)cc(F)c4c3=O)c2CO)cc(Nc2ccc(OC(C)(C)CN3CCC3)cn2)c1=O", "IC50": "30 nM"}
{"molecule": "CC(C)N1CCC(c2ccc(Nc3cc(-c4cccc(-n5ncc6cc(C(C)(C)C)cc(F)c6c5=O)c4CO)nn(C)c3=O)nc2)CC1", "IC50": "15 nM"}
{"molecule": "Cn1nc(-c2cccc(-n3ncc4cc(C(C)(C)C)cc(F)c4c3=O)c2CO)cc(Nc2ccc(C(=O)N3CC4(COC4)C3)cn2)c1=O", "IC50": "85 nM"}
{"molecule": "Cn1nc(Nc2cc(-c3cccc(-n4ccc5cc(C(C)(C)C#N)cc(F)c5c4=O)c3CO)nn(C)c2=O)cc1CN1CCC1", "IC50": "56 nM"}
{"molecule": "Cn1nc(-c2cccc(-n3ncc4cc(C(C)(C)C)cc(F)c4c3=O)c2CO)cc(Nc2ccc(C(=O)N3CCC(O)C3)cn2)c1=O (centres unmarked)", "IC50": "104 nM"}
{"molecule": "Cn1nc(-c2cccc(N3CCc4cc(C(C)(C)C#N)cc(F)c4C3=O)c2CO)cc(Nc2ccc(OC(C)(C)CN3CCC3)cn2)c1=O", "IC50": "84 nM"}
{"molecule": "CN1C[C@@H]2C[C@H]1CN2Cc1ccc(Nc2cc(-c3cccc(-n4ncc5cc(C(C)(C)C)cc(F)c5c4=O)c3CO)nn(C)c2=O)nc1", "IC50": "41 nM"}
{"molecule": "CN1C[C@@H]2C[C@H]1CN2c1ccc(Nc2cc(-c3cccc(-n4ncc5cc(C(C)(C)C)cc(F)c5c4=O)c3CO)nn(C)c2=O)nn1", "IC50": "293 nM"}
{"molecule": "CN1CC[C@H](c2ccc(Nc3cc(-c4cccc(-n5ncc6cc(C(C)(C)C)cc(F)c6c5=O)c4CO)nn(C)c3=O)nc2)C1", "IC50": "2 nM"}
{"molecule": "CN1[C@@H]2CC[C@H]1CN(Cc1ccc(Nc3cc(-c4cccc(-n5ncc6cc(C(C)(C)C)cc(F)c6c5=O)c4CO)nn(C)c3=O)nc1)C2", "IC50": "25 nM"}
{"molecule": "CC(C)N1CCN(c2ccc(Nc3cc(-c4cccc(-n5ncc6cc(C(C)(C)C)cc(F)c6c5=O)c4CO)nn(C)c3=O)nc2)CC1 [I-27, HCl]", "IC50": "89 nM"}
{"molecule": "Cn1nc(-c2cccc(-n3ncc4cc(C(C)(C)C)cc(F)c4c3=O)c2CO)cc(Nc2ccn(C[C@@H](O)CO)n2)c1=O", "IC50": "61 nM"}
{"molecule": "CCN1CCN(c2ccc(Nc3cc(-c4cccc(-n5ncc6cc(C(C)(C)C)cc(F)c6c5=O)c4CO)nn(C)c3=O)nc2)CC1", "IC50": "18 nM"}
{"molecule": "Cn1nc(-c2cccc(-n3ncc4cc(C(C)(C)C)cc(F)c4c3=O)c2CO)cc(Nc2ccc(OC(C)(C)CN3CCC3)cn2)c1=O", "IC50": "9 nM"}
{"molecule": "Cn1nc(-c2cccc(-n3ncc4cc(C(C)(C)C)cc(F)c4c3=O)c2CO)cc(Nc2ccc(S(=O)(=O)CCO)cn2)c1=O", "IC50": "152 nM"}
{"molecule": "Cn1nc(-c2cccc(-n3ncc4cc(C(C)(C)C)cc(F)c4c3=O)c2CO)cc(Nc2ccc(CN3CCC3)cn2)c1=O", "IC50": "20 nM"}
{"molecule": "CN(C)C(=O)c1ccc(Nc2cc(-c3cccc(-n4ncc5cc(C(C)(C)C)cc(F)c5c4=O)c3CO)nn(C)c2=O)nc1", "IC50": "15 nM"}
{"molecule": "CCN1CCn2nc(Nc3cc(-c4cccc(-n5ccc6cc(C(C)(C)C#N)cc(F)c6c5=O)c4CO)nn(C)c3=O)cc2C1", "IC50": "70 nM"}
{"molecule": "CN1CCN(c2ccc(Nc3cc(-c4cccc(-n5ncc6cc(C(C)(C)C)cc(F)c6c5=O)c4CO)nn(C)c3=O)nc2)CC1", "IC50": "17 nM"}
